test system: U2OS; test: Multiplex assay against U2OS; assay type: toxicity, cell-based; settings: human, 24 h, 10 µM, compound concentration 10 uM, replicate 2
Exercise: for every item that follows, state its recorded Population Mitotic Cells (%).
Give the value, in units of %, as a plain number.

Q) Return reported Population Mitotic Cells (%); argument: CCCCCNC(=N)N/N=C/c1c[nH]c2ccc(OC)cc12.O=C(O)/C=C\C(=O)O [TEGASEROD MALEATE]
A) 0

Q) Return reported Population Mitotic Cells (%); argument: `Cc1ccc(NC(=O)Nc2cc(C(F)(F)F)ccc2F)cc1Nc1ccc2c(c1)NC(=O)/C2=C\c1ccc[nH]1`
A) 83

Q) Return reported Population Mitotic Cells (%); argument: `N#CCNC(=O)c1ccc(-c2ccnc(Nc3ccc(N4CCOCC4)cc3)n2)cc1`
A) 54

Q) Return reported Population Mitotic Cells (%); argument: `NC(=O)c1ccc2nc(-c3ccc(C4(N)CCC4)cc3)c(-c3ccccc3)n2n1`
A) 92

Q) Return reported Population Mitotic Cells (%); argument: `Cc1c(Nc2ccc(S(=O)(=O)N3CCN(C)CC3)cc2F)nc2ccc(Nc3cnn(C4CC4)c3)cn2c1=O`
A) 69

Q) Return reported Population Mitotic Cells (%); argument: `C[C@@H](Oc1cc(-n2cnc3ccc(CN4CCN(C)CC4)cc32)sc1C(N)=O)c1ccccc1C(F)(F)F`
A) 17

Q) Return reported Population Mitotic Cells (%); argument: `CCOc1ccn(-c2ccc(F)cc2)c(=O)c1C(=O)Nc1ccc(Oc2ccnc(N)c2Cl)c(F)c1`
A) 87

Q) Return reported Population Mitotic Cells (%); argument: `CN(c1cc(C(F)(F)F)nc(OCCC(=O)O)n1)c1cccc2c1CCC2`
A) 100

The values you see were collected from ChEMBL document CHEMBL4689842.
